assay: qHTS for Inhibitors of human tyrosyl-DNA phosphodiesterase 1 (TDP1): qHTS in cells in presence of CPT; conditions: chicken DT40 Tdp1-/-;hTDP1 cells + 20 nM CPT, ATP luminescence, 48 h; series mostly up to 46.2 µM; note: nearly all actives have a fitted effect of over 55% in size
Screen size: about 420,000 compounds; about 50,000 (12%) were called active. Another 26% or so got no clear call; they are omitted. Calls come from the whole dose curve; as a rule, active = well fitted inhibition curve with a large enough effect; inconclusive = small, poorly fitted or top-dose-only effect; inactive = flat fitted curve, though single readings scatter. Many of the other results were omitted from the sample, so actives are more common in it than they were.
Could you please pick one outcome from this set? Y = active, N = inactive

Take a look at these entries with their results.
• O=C1CS(=O)CN1c1ccc(Oc2ccccc2)cc1 (stereo not drawn) = N
• CSc1nc(-c2ccccc2Cl)nc2c1Cc1c(CO)cnc(C)c1O2 = Y
• COc1cccc(-n2cc(C(=O)O)c3ccccc3c2=O)c1 = N

[in] // param item: NS(=O)(=O)c1ccc(-c2ccc(/C=C3\SC(=O)NC3=O)o2)cc1 ; yields the recorded call
[out] N

[in] // param item: C[C@H]1CCC(=O)N([C@H](CSc2ccccc2)Cc2ccccc2)CC1 ; yields the recorded call
[out] N

[in] // param item: COc1ccc(CCOC2OC(CO)C(OC(=O)/C=C/c3ccc(O)c(OC)c3)C(O[C@H]3O[C@@H](C)[C@H](O)[C@@H](O)[C@H]3O)C2O)cc1O (stereo partly drawn) ; yields the recorded call
[out] N

[in] // param item: COc1cc(OC)cc(C(=O)NNC(=O)CNC(=O)c2ccc(Br)o2)c1 ; yields the recorded call
[out] N

[in] // param item: COc1ccc(N(C)C(=O)CCS(=O)(=O)c2cccc3nsnc23)cc1 ; yields the recorded call
[out] N

[in] // param item: COc1cccc(-n2ccn(CC(=O)NCc3ccc(C)cc3)c(=O)c2=O)c1 ; yields the recorded call
[out] N
